Biological target: T1, Full length human CD40 (huCD40) on cells (human, UniProt P25942 21-277)
T1 construct: CD40 on human mature DCs, human B cells, Raji cells and HEK-Blue CD40L cells (stably expressing human CD40); also called TNFRSF5
T1 sequence (P25942 21-277): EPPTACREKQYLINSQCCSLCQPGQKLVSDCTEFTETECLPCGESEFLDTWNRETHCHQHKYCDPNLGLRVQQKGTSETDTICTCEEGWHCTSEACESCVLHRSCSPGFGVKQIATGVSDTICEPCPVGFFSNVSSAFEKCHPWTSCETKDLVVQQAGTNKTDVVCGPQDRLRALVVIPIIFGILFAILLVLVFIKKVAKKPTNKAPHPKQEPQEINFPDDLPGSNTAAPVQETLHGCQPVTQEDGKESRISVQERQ
Test: flow cytometry, human mature DCs
I'd appreciate it if you could supply EC50 values for the items below.
Supply the numeric figure in µg/mL, leaving out any unit text.

Problem: # get_value(readout='EC50', item= C40M12 (antibody, human IgG1, lambda, V domains shown, Full-length IgG1/lambda; from OmniRat (OMT)) VH: EVQLVESGGGLVQPGGSLRLSCAASGFTFGSYAMSWVRQAPGKGLEWVSVISDSGGRTYYADSVKGRFTISRDYSKNTLYLQMNSLRAEDTAVYYCAKEGGDYYYYGMDVWGQGTTVTVSS VL: SYELTQPPSVSVSPGQTASIICSGDKLGDKYVCWYQQKPGQSPVVVIYHDNKRPSGIPERFSGSNSGNTATLTISGTQAMDEADYYCQVWDSSTVVFGGGTKLTVLG )
Result: 0.298

Problem: # get_value(readout='EC50', item= C40M67 (antibody, human IgG1, kappa, V domains shown, Full-length IgG1/kappa; from phage display) VH: EVQLLESGGGLVQPGGSLRLSCAASGFTFSDYAMNWVRQAPGKGLEWVSGIKSGGSSKYYADSVKGRFTISRDNSKNTLYLQMNSLRAEDTAVYYCAKHVDFYRALDYWGQGTLVTVSS VL: EIVLTQSPGTLSLSPGERATLSCRASQSVKNSSLAWYQQKPGQAPRLLIYTASSRATGIPDRFSGSGSGTDFTLTISRLEPEDFAVYYCQQSSAPPWTFGQGTKVEIKR )
Result: 0.766

Problem: # get_value(readout='EC50', item= C40M9 (antibody, human IgG1, lambda, V domains shown) VH: QLQLQESGPGLVKPSEILSLTCTVSGGSISSSSYYWGWIRQPPGKGLEWIGNIYYRGDTYYSPSLKSRVTISVDTSKNQFSLKLNSVTAADTAVYYCAKGFRFDYWGQGTLVTVSS VL: QSALTQPPSASGSPGQSVTISCTGTSSDVGGYNYVSWYQQHPGKAPKLMIYEVSKRPSGVPDRFSGSKSGNTASLTVSGLQAEDEADYYCSSYAGSNNLVFGGGTKLTVLG )
Result: 0.123

Problem: # get_value(readout='EC50', item= C40M18 (antibody, human IgG1, lambda, V domains shown, Full-length IgG1/lambda; from OmniRat (OMT); VH C40H48, VL C40L64) VH: EVQLVESGGGLVQPGGSLRLSCAASGFTFSSYAMSWVRQAPGKGLEWVSIINNNVGRTYYADSVKGRFTISRDNSKNTLYLQMNSLRAEDTAVYYCAKEGGDYYYYGMDVWGQGTTVTVSS VL: SYELTQPPSVSVSPGQTASITCSGDKLGDKYVCWYQQKPGQSPVVVIYQDSKRPSGIPERFSGSNSGNTATLTISGTQAMDEAYYYCQAWVSSTVVFGGGTKLTVLG )
Result: 0.352
